Molecular target: PEG-3 (UniProt Q6IN02)
Test: GAPDH versus PEG-3 reporter suppression – cell-based, luminescence, counter-screen for PEG-3 promoter inhibitor project, SAR follow-up (AID 651551)
Conditions: HeLa PEG-Prom / GAPDH luciferase reporter, 6 or 24 h, mean of runs, 6 h
Active and inactive are the calls of the source.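 Rule for the calls: active = compounds blocking the Peg3 reporter with IC50 up to 10 µM at 6 or 24 hours, yet inert on a control reporter; inactive = the rest.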
Outcomes: active, inactive

>  <smi>
Cc1cc(NC(=O)c2cccc(C)c2C)n(-c2nc3ccccc3[nH]2)n1

>  <qualitative.label>
inactive

$$$$
>  <smi>
Cc1nc(NC(=O)c2ccccc2)sc1-c1csc(Nc2ccccc2)n1

>  <qualitative.label>
inactive

$$$$
>  <smi>
COc1ccc(Cl)cc1Nc1nc(-c2sc(NC(=O)c3ccccc3)nc2C)cs1

>  <qualitative.label>
inactive

$$$$
>  <smi>
COc1ccc(-n2nc(C(=O)NCC(=O)Nc3cc(OC)c(OC)c(OC)c3)c3ccccc3c2=O)cc1OC

>  <qualitative.label>
inactive

$$$$
>  <smi>
Cc1cc(NC(=O)c2ccccc2)n(-c2nc3ccccc3[nH]2)n1

>  <qualitative.label>
inactive

$$$$
>  <smi>
COc1ccc(-n2nc(C(=O)NCC(=O)Nc3ccc(OC)c(OC)c3)c3ccccc3c2=O)cc1

>  <qualitative.label>
inactive

$$$$
>  <smi>
CCCn1nc(C(=O)Nc2nc3ccccc3s2)c2ccccc2c1=O

>  <qualitative.label>
inactive

$$$$
>  <smi>
Cc1cc(NC(=O)c2ccccc2C(F)(F)F)n(-c2nc3ccccc3[nH]2)n1

>  <qualitative.label>
inactive

$$$$
>  <smi>
COCCCNC(=O)c1ccc(Cn2c(=O)c3ccccc3n(Cc3ccccc3C#N)c2=O)cc1

>  <qualitative.label>
inactive

$$$$
>  <smi>
CCCn1nc(C(=O)Nc2nc(-c3ccncc3)cs2)c2ccccc2c1=O

>  <qualitative.label>
inactive

$$$$
>  <smi>
Cc1nc(NC(=O)c2ccccc2)sc1-c1csc(Nc2cccc(Cl)c2C)n1

>  <qualitative.label>
inactive

$$$$
>  <smi>
COc1ccccc1Nc1nc(-c2sc(NC(=O)c3ccco3)nc2C)cs1

>  <qualitative.label>
inactive

$$$$
>  <smi>
Cc1cc(NC(=O)c2ccccc2)n(-c2nc3ccccc3n2C)n1

>  <qualitative.label>
inactive

$$$$
>  <smi>
Cc1ccc(Cl)cc1Nc1nc(-c2sc(NC(=O)c3ccco3)nc2C)cs1

>  <qualitative.label>
inactive

$$$$
>  <smi>
COc1ccc(-n2nc(C(=O)NCC(=O)Nc3cccc(OC)c3)c3ccccc3c2=O)cc1

>  <qualitative.label>
inactive

$$$$
>  <smi>
O=C(Nc1nccs1)c1nn(-c2ccccc2)c(=O)c2ccccc12

>  <qualitative.label>
inactive

$$$$
>  <smi>
CCCn1nc(C(=O)Nc2nc(-c3ccccn3)cs2)c2ccccc2c1=O

>  <qualitative.label>
active

$$$$
>  <smi>
Cc1nc(NC(=O)c2ccccc2)sc1-c1csc(Nc2ccccc2Cl)n1

>  <qualitative.label>
inactive

$$$$
>  <smi>
O=C(Nc1nc(-c2ccccc2)cs1)c1nn(-c2ccccc2)c(=O)c2ccccc12

>  <qualitative.label>
inactive

$$$$
>  <smi>
O=C(Nc1nc2ccccc2s1)c1nn(-c2ccccc2)c(=O)c2ccccc12

>  <qualitative.label>
inactive

$$$$
>  <smi>
CCn1cc(C(=O)NCc2ccco2)c(=O)c2cc(S(=O)(=O)N3CCCC3)ccc21

>  <qualitative.label>
inactive

$$$$
>  <smi>
Cc1cc(NC(=O)c2ccccc2C)n(-c2nc3ccccc3[nH]2)n1

>  <qualitative.label>
inactive

$$$$
>  <smi>
CCn1nc(C(=O)Nc2nc(-c3ccccn3)cs2)c2ccccc2c1=O

>  <qualitative.label>
inactive

$$$$

Values were extracted from PubChem BioAssay AID651551.
